Measured IC50, listed per entry for reference.
Target: human LPA1 (Homo sapiens, UniProt Q92633)
Sequence (Q92633 whole entry): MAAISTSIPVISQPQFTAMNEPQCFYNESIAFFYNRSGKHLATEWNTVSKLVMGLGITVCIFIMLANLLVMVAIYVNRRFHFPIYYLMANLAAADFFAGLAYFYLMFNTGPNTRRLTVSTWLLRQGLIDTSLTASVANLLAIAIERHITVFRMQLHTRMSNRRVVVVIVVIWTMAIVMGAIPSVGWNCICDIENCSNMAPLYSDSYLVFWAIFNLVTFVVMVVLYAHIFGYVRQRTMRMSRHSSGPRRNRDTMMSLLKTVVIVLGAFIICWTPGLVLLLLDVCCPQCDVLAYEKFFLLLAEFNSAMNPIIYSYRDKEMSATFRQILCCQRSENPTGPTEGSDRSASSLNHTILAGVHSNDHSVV
Assay: LPA1 functional antagonist assay (calcium flux)
Settings: CHO cells overexpressing human LPA1; inhibition of calcium flux induced by 10 nM LPA; read-out: hLPA1 IC50
Method: The effectiveness of compounds of the present invention as LPA1 inhibitors can be determined in an LPA1 functional antagonist assay as follows: Chinese hamster ovary cells overexpressing human LPA1 were plated overnight (15,000 cells/well) in poly-D-lysine coated 384-well microplates (Greiner bio-one, Cat #781946) in DMEM/F12 medium (Gibco, Cat #11039). […] IC50 values were determined by fitting data to a 4-parameter logistic equation (GraphPad Prism, San Diego Calif.).
Respond numerically; units are nM and should not be typed.

>>> number("COc1nc(NCc2c(-c3ccc(O[C@H]4CCC[C@H](C(=O)O)C4)c(C)n3)nnn2C)nc(-c2ccccc2)n1")
153
>>> number("Cc1nc(-c2nnn(C)c2COc2cc(-n3cccc3)ncn2)ccc1O[C@H]1CCC[C@H](C(=O)O)C1")
39
>>> number("Cc1nc(-c2nnn(C)c2COc2ccnc(C(F)F)c2)ccc1O[C@H]1CCC[C@H](C(=O)O)C1")
60
>>> number("Cc1nc(-c2nnn(C)c2CNc2nccc(C(F)F)n2)ccc1O[C@H]1CCC[C@H](C(=O)O)C1")
135
>>> number("COc1cnc(NCc2c(-c3ccc(O[C@H]4CCC[C@H](C(=O)O)C4)c(C)n3)nnn2C)nc1C(C)(C)C")
344
>>> number("CCCNc1nc(NCc2c(-c3ccc(O[C@H]4CCC[C@H](C(=O)O)C4)c(C)n3)nnn2C)ncc1F")
46

Now take the following compound into account.
Please look up its IC50: Cc1nc(-c2nnn(C)c2CNc2ncc(Cl)c(C(C)C)n2)ccc1O[C@H]1CCC[C@H](C(=O)O)C1
27

* * *

Measured IC50, listed per entry for reference.
Target: human LPA1 (Homo sapiens, UniProt Q92633)
Assay: LPA1 functional antagonist assay (calcium flux)
Settings: CHO cells overexpressing human LPA1; inhibition of calcium flux induced by 10 nM LPA; read-out: hLPA1 IC50
Respond numerically; units are µM and should not be typed.

Illustrative cases are given below, each with its answer.
>>> number("Cc1nc(-c2nnn(C)c2CN(C)c2ncnc(C3CC3)n2)ccc1O[C@H]1CCC[C@H](C(=O)O)C1")
0.093
>>> number("Cc1nc(-c2nnn(C)c2COc2cc(C(F)(F)F)ncn2)ccc1O[C@H]1CCC[C@H](C(=O)O)C1")
0.021
>>> number("CCCCc1cccc(Nc2c(-c3ccc(O[C@H]4CCC[C@H](C(=O)O)C4)cn3)nnn2C)n1")
0.032
>>> number("Cn1nnc(-c2ccc(O[C@H]3CCC[C@H](C(=O)O)C3)cn2)c1CNc1nccc(C(C)(C)C)n1")
0.036
>>> number("Cc1nc(-c2nnn(C)c2COc2cc(C(C)(C)C)ncn2)ccc1O[C@H]1CCC[C@H](C(=O)O)C1")
0.135

Record Cc1nc(-c2nnn(C)c2COc2cc(C3CC3)ccn2)ccc1O[C@H]1CCC[C@H](C(=O)O)C1 : what is its IC50 with human LPA1 (Homo sapiens, UniProt Q92633)?
0.0088

Record Cn1nnc(-c2ccc(O[C@H]3CCC[C@H](C(=O)O)C3)cn2)c1COc1nccc(C2CC2)n1 : what is its IC50 with human LPA1 (Homo sapiens, UniProt Q92633)?
0.118

Recorded values, source patent US11267800B2.
